Record form. Attribute: Kb. Fill in for each entry.
assayed system: histamine H2 receptor in atria (Cavia porcellus, UniProt P47747)
Construct: right atrium was isolated; from tissue; host or cells: isolated right atrium of male Hartley guinea pig
Sequence (P47747 whole entry): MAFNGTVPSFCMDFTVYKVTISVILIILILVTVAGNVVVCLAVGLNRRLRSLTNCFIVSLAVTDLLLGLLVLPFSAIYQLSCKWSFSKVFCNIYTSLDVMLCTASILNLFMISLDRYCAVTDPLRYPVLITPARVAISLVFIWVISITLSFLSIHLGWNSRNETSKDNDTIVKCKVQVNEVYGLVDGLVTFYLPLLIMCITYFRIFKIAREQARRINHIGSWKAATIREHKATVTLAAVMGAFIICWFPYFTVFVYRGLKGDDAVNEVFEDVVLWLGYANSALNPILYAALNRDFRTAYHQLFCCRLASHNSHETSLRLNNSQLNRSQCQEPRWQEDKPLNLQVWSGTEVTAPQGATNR
assay summary: Histamine H2 receptor inhibition effect by isolated guinea pig right atrium preparation (negative chronotropic effect)
Assay type: cell-based, Male Hartley Guinea Pig
protocol conditions: 5×10^-6 mol sample 3 minutes prior to histamine, mean of five, read-out: inhibitory effect of histamine H2 receptor in atria (pA2 value) (converted)
Numbers only, in µM.

Some compounds with known Kb results, for comparison:
>>> print(df.to_string())
                                   compound  quantity_kind  meas_value
0  CCNc1n[s+]([O-])nc1NCCCSc1ccc2[nH]c(NC(=N)N)nc2c1 (stereo not shown) [Example 113]             Kb        8.51
1  CN(C)Cc1cccc(Cc2cnc(NCCSCc3ccc4[nH]c(CN(C)C)nc4c3)[nH]c2=O)c1 [Example 78]             Kb        1.78
2  C#CCNC(=C[N+](=O)[O-])NCCSCc1ccc2[nH]c(CN(C)C)nc2c1 [Example 44]             Kb       0.631

Turning now to a further compound:
Respond only with Kb recorded for CN(C)Cc1cccc(Cc2cnc(NCCCOc3ccc4[nH]c(CN(C)C)nc4c3)[nH]c2=O)c1 [Example 70]
2.45

====

assayed system: histamine H2 receptor in atria (Cavia porcellus)
Construct: right atrium was isolated; from tissue; host or cells: isolated right atrium of male Hartley guinea pig
assay summary: Histamine H2 receptor inhibition effect by isolated guinea pig right atrium preparation (negative chronotropic effect)
Assay type: cell-based, Male Hartley Guinea Pig
protocol conditions: 5×10^-6 mol sample 3 minutes prior to histamine, mean of five, read-out: inhibitory effect of histamine H2 receptor in atria (pA2 value) (converted)
quantity kind: Kb (nM)
Answers are plain numbers, in nM.

In [3]: df
Out[3]:
                                   molecule  quantity_kind  value_units  meas_value
0  O=c1[nH]c(NCCCOc2ccc3[nH]c(CN4CCCCC4)nc3c2)nnc1Cc1cccnc1             Kb           nM        1950

Give one value of Kb per listed molecule.
1. CNC(=C[N+](=O)[O-])NCCCOc1ccc2[nH]c(CN(C)C)nc2c1
2. CNC(=NC#N)NCCCCOc1ccc2[nH]c(CN(C)C)nc2c1
3. C#CCNC1=NS(=O)(=O)N=C1NCCSCc1ccc2[nH]c(CN(C)C)nc2c1
4. CNc1n[s+]([O-])nc1NCCSCc1ccc2[nH]c(CN(C)C)nc2c1 (centres unmarked)

[16200, 1510, 1580, 537]

====

Tested on: acid secretion in pylorus-ligated rats
assay summary: Anti-secretory effect (histamine-stimulated gastric acid secretion) in pylorus-ligated rat
Format: in vivo, male wistar rats
protocol conditions: Rattus norvegicus, sc, 3 h; 2 mg/kg s.c., 30 min before histamine 3 mg/kg s.c.; n=5; * significant at 5%, ** at 1% vs control; read-out: inhibitory effect of acid secretion (%) at 2 mg/kg s.c.
quantity kind: inhibition in vivo at 2 mg/kg (%)
Give bare numbers, in %.

>>> print(df.to_string())
                                   compound                          assayed_system  meas_value
0  CNc1n[s+]([O-])nc1NCCSCc1ccc2[nH]c(CN(C)C)nc2c1 (stereo not drawn) [Example 106]  acid secretion in pylorus-ligated rats          89
1  Nc1n[s+]([O-])nc1NCCSCc1ccc2[nH]c(CN3CCCCC3)nc2c1 (stereo not drawn) [Example 105]  acid secretion in pylorus-ligated rats          92

Write down inhibition in vivo at 2 mg/kg measured for item O=c1[nH]c(NCCCOc2ccc3[nH]c(CN4CCCCC4)nc3c2)ncc1Cc1cccnc1 [Example 68]
90

The values you see were collected from patent US4550118A.
